Values were extracted from PubChem BioAssay.

Test system: F380Y
experimental.details: modulators of BK channel variants, profiling panel, selectivity assay, cell-based, U2OS BacMam, thallium flux, beta subunits (AID 1259406);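 further: initial slope of Thallos dye fluorescence rise after thallium is added; log ratio against the mean of 0.3% DMSO vehicle wells on the same plate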
condition.summary: at 30 µM
Where log fold change Tl+ flux equals or exceeds -0.006, the correct label is 1.0; where it does not, the label is 0.0.

Illustrative cases are given below, each with its answer.
{"molecule": "O=C(NC(=O)c1ccccc1Oc1ccc(Cl)cc1Cl)Nc1cc(Cl)cc(Cl)c1", "answer.label": 1.0}
{"molecule": "CC1c2cccc(O)c2C(O)=C2C(=O)[C@]3(O)C(O)=C(C(N)=O)C(=O)[C@@H](N(C)C)[C@@H]3C[C@@H]21 (stereo not given in full)", "answer.label": 0.0}
{"molecule": "O=S(=O)(Oc1ccc(F)cc1F)c1cccc(S(=O)(=O)Oc2ccc(F)cc2F)c1", "answer.label": 0.0}
{"molecule": "CCOC(=O)C(C#N)=CNc1ccccc1OC(F)(F)F", "answer.label": 0.0}

Hello, I need to know if `CC1(C)CC(=O)N(c2cc(Cl)cc(Cl)c2)C(=O)C1` has measured log fold change Tl+ flux not below -0.006. Thanks!
1.0
